What cell viability was measured for each of the following?
# Tested on: HCI01 (cells of a triple-negative basal-like breast cancer xenograft)
# Method notes: cell viability (% of vehicle); higher = less cytotoxic
# Condition details: 10 µM; 72 h
Answers are plain numbers.

Reference set, count: 3
INSERT INTO results (molecule, observed_property, test_result) VALUES
  ('Cc1ccnc(NS(=O)(=O)c2ccc(N)cc2)n1', 'cell viability', 100),
  ('CC(C)(C)NC(=O)NC(C(=O)N1CC2C(C1C(=O)NC(CC1CCC1)C(=O)C(N)=O)C2(C)C)C(C)(C)C (stereo not given)', 'cell viability', 100),
  ('CCCC(CCC)C(=O)O', 'cell viability', 102);

Below are 2 molecules. Give each one its cell viability.
1. N#CC(c1ccc(Cl)cc1)c1c(Cl)cc(-n2ncc(=O)[nH]c2=O)cc1Cl (stereo not given)
2. CN(C)CCCC1(c2ccc(F)cc2)OCc2cc(C#N)ccc21.O=C(O)C(=O)O (stereo not given) [Escitalopram Oxalate]

[out]
1: 98.7; 2: 99.8

----------
# Test system: WHIM30 (cells of a triple-negative basal-like breast cancer xenograft)
# Method notes: cell viability (% of vehicle); higher = less cytotoxic
# Condition details: 10 µM; 72 h
Where a name gives a salt, the structure may show the parent alone.
What cell viability was measured for each of the following?
Give bare numbers.

INSERT INTO assay_data (compound, test_result) VALUES
  ('CN1CCN(C2=Nc3ccccc3Oc3ccc(Cl)cc32)CC1.O=C(O)CCC(=O)O [Loxapine Succinate]', 103);

Below are 3 compounds. Give each one its cell viability.
1. Cl.Fc1ccc(C2CCNCC2COc2ccc3c(c2)OCO3)cc1 (stereo unspecified) [Paroxetine HCl]
2. CCc1cnn2c(NCc3ccc[n+]([O-])c3)cc(N3CCCCC3CCO)nc12 (stereo unspecified)
3. CC(N)(Cc1ccc(O)c(O)c1)C(=O)O (stereo unspecified) [Methyldopa]

[out]
1: 80.7; 2: 66.2; 3: 96.2

Below are 7 compounds. Give each one its cell viability.
1. CN(C)CCCN1c2ccccc2Sc2ccc(Cl)cc21.Cl [Chlorpromazine HCl]
2. Cc1ccc(C(=O)N(CCCN)C(c2nc3cc(Cl)ccc3c(=O)n2Cc2ccccc2)C(C)C)cc1 (stereo unspecified)
3. Cc1cn(C2CC(O)C(CO)O2)c(=O)[nH]c1=O (stereo unspecified) [Telbivudine]
4. CCCNC(=O)NS(=O)(=O)c1ccc(Cl)cc1 [Chlorpropamide]
5. Nc1ccn([C@@H]2O[C@H](CO)[C@@H](O)C2(F)F)c(=O)n1 [Gemcitabine HCl]
6. Nc1nc(Cl)nc2c1ncn2C1CC(O)C(CO)O1 (stereo unspecified) [Cladribine]
7. CC1(C)OC2COC3(COS(N)(=O)=O)OC(C)(C)OC3C2O1 (stereo unspecified) [Topiramate]

[out]
1. 104
2. 39.8
3. 124
4. 104
5. 105
6. 78.8
7. 110

----------
# Test system: HCI16 (cells of a triple-negative basal-like breast cancer xenograft)
# Method notes: cell viability (% of vehicle); higher = less cytotoxic
# Condition details: 10 µM; 72 h
What cell viability was measured for each of the following?
Give bare numbers.

Reference set, count: 2
INSERT INTO results (molecule, study_system, test_result) VALUES
  ('Cl.Clc1ccccc1CN1CCc2sccc2C1 [Ticlopidine HCl]', 'HCI16', 97.2),
  ('CCN(CC)CCCC(C)Nc1ccnc2cc(Cl)ccc12.O=P(O)(O)O.O=P(O)(O)O (stereo not drawn) [Chloroquine diphosphate]', 'HCI16', 102);

// below: cell viability requested for another molecule
Note to self: cell viability recorded for O=c1ncnc2[nH][nH]cc1-2 was 103

----------
# Tested on: HCI01
# Method notes: cell viability (% of vehicle); higher = less cytotoxic
# Condition details: 10 µM; 72 h
Hi! Just check whether cell viability is below 100. Below gives true (1), equal or above gives false (0).

Worked examples follow.
INSERT INTO measurements (compound, group) VALUES
  ('COc1cc2ncnc(Nc3ccc(F)c(Cl)c3)c2cc1OCCCN1CCOCC1 [Gefitinib (ZD1839)]', 'true (1)'),
  ('O=c1[nH]c(=O)n(C2CCCO2)cc1F (stereo unspecified)', 'false (0)'),
  ('CC(C)NCC(O)COc1cccc2ccccc12.Cl (stereo unspecified) [Propranolol HCl]', 'false (0)');

[in] State whether 100 exceeds cell viability recorded for c1ccc2[nH]c(-c3cscn3)nc2c1 .
[out] false (0)

[in] State whether 100 exceeds cell viability recorded for COCCCCC(=NOCCN)c1ccc(C(F)(F)F)cc1.O=C(O)C=CC(=O)O [Fluvoxamine maleate] .
[out] false (0)

----------
# System: WHIM2 (cells of a triple-negative basal-like breast cancer xenograft)
# Method notes: cell viability (% of vehicle); higher = less cytotoxic
# Condition details: 10 µM; 72 h
What cell viability was measured for each of the following?

Reference set, count: 3
INSERT INTO assay_data (molecule, observed_property, test_result) VALUES
  ('CCn1cc(C(=O)O)c(=O)c2cc(F)c(N3CCNCC3)nc21', 'cell viability', 85.5),
  ('Cc1cc(=O)[nH]c(=S)[nH]1', 'cell viability', 80.6),
  ('CNCC(O)c1ccc(O)c(O)c1.Cl (centres undefined) [Epinephrine HCl]', 'cell viability', 142);

Below are 3 molecules. Give each one its cell viability.
1. C=CC(=O)Nc1cccc(Nc2nc(Nc3ccc(N4CCN(C(C)=O)CC4)cc3OC)ncc2C(F)(F)F)c1
2. CC1CNCCCN1S(=O)(=O)c1cccc2cncc(F)c12.Cl.O.O (centres undefined)
3. COc1ccc(-n2nc(C(N)=O)c3c2C(=O)N(c2ccc(N4CCCCC4=O)cc2)CC3)cc1

[out]
1: 66.7; 2: 92.8; 3: 97.6

----------
# System: WHIM30
# Method notes: cell viability (% of vehicle); higher = less cytotoxic
# Condition details: 1 µM; 72 h
What cell viability was measured for each of the following?

INSERT INTO measurements (molecule, study_system, test_result) VALUES
  ('COc1ccc(CN2CCN(C(c3ccc(F)cc3)c3ccc(F)cc3)CC2)c(OC)c1OC.Cl.Cl [Lomerizine HCl]', 'WHIM30', 92.2),
  ('CCOC(=O)C1=C(COCCN)NC(C)=C(C(=O)OC)C1c1ccccc1Cl.O=S(=O)(O)c1ccccc1 (stereo not given) [Amlodipine Besylate]', 'WHIM30', 88.5),
  ('CNC(=O)c1cc(Oc2ccc(NC(=O)Nc3ccc(Cl)c(C(F)(F)F)c3)c(F)c2)ccn1 [Regorafenib]', 'WHIM30', 89.9),
  ('Cc1cc(-n2c(=O)[nH]c(=O)n(C)c2=O)ccc1Oc1ccc(SC(F)(F)F)cc1 [Toltrazuril]', 'WHIM30', 90.8);

// below: cell viability requested for another molecule
Note to self: cell viability recorded for CCOC(=O)C1=C(COCCN)NC(C)=C(C(=O)OC)C1c1ccccc1Cl (stereo not given) [Amlodipine] was 90.2

----------
# Tested on: HCI11 (cells of an ER-positive luminal breast cancer xenograft)
# Method notes: cell viability (% of vehicle); higher = less cytotoxic
# Condition details: 10 µM; 72 h
Observed property: cell viability
Give bare numbers.

Reference set, count: 4
INSERT INTO results (compound, test_result) VALUES
  ('CNC(=O)CN(CCN(CCN(CC(=O)[O-])CC(=O)NC)CC(=O)[O-])CC(=O)[O-].O.[Gd+3] [Gadodiamide]', 90.1),
  ('COc1ccc(C2(C#N)CCC(C(=O)O)CC2)cc1OC1CCCC1 (configuration not stated)', 88.4),
  ('O=C(O)c1cccnc1Nc1cccc(C(F)(F)F)c1', 68.8),
  ('CCC(Nc1ncnc2nc[nH]c12)c1nc2cccc(F)c2c(=O)n1-c1ccccc1 (configuration not stated)', 76.8);

Below are 3 compounds. Give each one its cell viability.
1. CC[C@@]1(O)C(=O)OCc2c1cc1n(c2=O)Cc2cc3c(CN(C)C)c(O)ccc3nc2-1.Cl [Topotecan HCl]
2. Nc1ccccc1NC(=O)c1ccc(CNc2nccc(-c3cccnc3)n2)cc1
3. CCC(=O)NCCC1CCc2ccc3c(c21)CCO3 (configuration not stated)

[out]
1. 51.9
2. 5.73
3. 93

----------
# Test system: WHIM2
# Method notes: cell viability (% of vehicle); higher = less cytotoxic
# Condition details: 10 µM; 72 h
What cell viability was measured for each of the following?
Numbers only.

Below are 4 molecules. Give each one its cell viability.
1. CC(O)C1C(=O)N2C(C(=O)O)=C(SC3CNC(CNS(N)(=O)=O)C3)C(C)C12 (centres undefined)
2. Cl.OC(c1cc(C(F)(F)F)nc2c(C(F)(F)F)cccc12)C1CCCCN1 (centres undefined) [Mefloquine hydrochloride]
3. Cl.N=C(N=C(N)N)N1CCOCC1 [Moroxydine HCl]
4. Clc1ccc(CCC(Cn2ccnc2)Sc2c(Cl)cccc2Cl)cc1.O=[N+]([O-])O (centres undefined) [Butoconazole nitrate]

[out]
93.3
37.7
70.3
53.8

----------
# Test system: UCD52 (cells of a triple-negative basal-like breast cancer xenograft)
# Method notes: cell viability (% of vehicle); higher = less cytotoxic
# Condition details: 10 µM; 72 h
Observed property: cell viability
One number for each entry.

Reference set, count: 8
INSERT INTO measurements (compound, observed_property, test_result) VALUES
  ('O=C1CN(/N=C/c2ccc(-c3ccc([N+](=O)[O-])cc3)o2)C([O-])=N1.[Na+] [Dantrolene, sodium salt]', 'cell viability', 92.4),
  ('COc1cc2nccc(Oc3ccc(NC(=O)C4(C(=O)Nc5ccc(F)cc5)CC4)cc3)c2cc1OC.O=C(O)CC(O)C(=O)O [Cabozantinib malate (XL184)]', 'cell viability', 34.5),
  ('Nc1nc(=O)c2ncn(CCC(CO)CO)c2[nH]1 [Penciclovir]', 'cell viability', 110),
  ('CCN1CCN(C(=O)NC(C(=O)NC2C(=O)N3C2SC(C)(C)C3C(=O)[O-])c2ccccc2)C(=O)C1=O.[Na+] (configuration not stated) [Piperacillin Sodium]', 'cell viability', 108),
  ('N.N.[Cl][Pt+2][Cl] [Cisplatin]', 'cell viability', 99.9),
  ('C=CCNC1=C2CC(C)CC(OC)C(O)C(C)C=C(C)C(OC(N)=O)C(OC)C=CC=C(C)C(=O)NC(=CC1=O)C2=O (configuration not stated)', 'cell viability', 91.6),
  ('Cc1ccsc1C(=CCCN1CCC[C@@H](C(=O)O)C1)c1sccc1C [Tiagabine]', 'cell viability', 89.1),
  ('CN(C)CCCN1c2ccccc2Sc2ccc(Cl)cc21.Cl [Chlorpromazine HCl]', 'cell viability', 51.4);

Below are 2 compounds. Give each one its cell viability.
1. CN(C)CCc1c[nH]c2ccc(CS(=O)(=O)N3CCCC3)cc12.O=C(O)CC(O)C(=O)O [Almotriptan Malate]
2. CCN1CCN(Cc2ccc(Nc3ncc(F)c(-c4cc(F)c5nc(C)n(C(C)C)c5c4)n3)nc2)CC1.CS(=O)(=O)O

[out]
87.7
26.2

Below are 3 compounds. Give each one its cell viability.
1. CCCCCCOC(=O)N=C(N)c1ccc(NCc2nc3cc(C(=O)N(CCC(=O)OCC)c4ccccn4)ccc3n2C)cc1
2. CC1CC2C3CCC4=CC(=O)C=CC4(C)C3(F)C(O)CC2(C)C1(O)C(=O)CO (configuration not stated) [Betamethasone]
3. Cc1nnc(C(C)C)n1C1CC2CCC(C1)N2CCC(NC(=O)C1CCC(F)(F)CC1)c1ccccc1 (configuration not stated) [Maraviroc]

[out]
[91.9, 183, 88.8]
